Target: GLUT1-mediated sugar transport in red cells (Homo sapiens, UniProt P11166)
Sequence (P11166 1-492): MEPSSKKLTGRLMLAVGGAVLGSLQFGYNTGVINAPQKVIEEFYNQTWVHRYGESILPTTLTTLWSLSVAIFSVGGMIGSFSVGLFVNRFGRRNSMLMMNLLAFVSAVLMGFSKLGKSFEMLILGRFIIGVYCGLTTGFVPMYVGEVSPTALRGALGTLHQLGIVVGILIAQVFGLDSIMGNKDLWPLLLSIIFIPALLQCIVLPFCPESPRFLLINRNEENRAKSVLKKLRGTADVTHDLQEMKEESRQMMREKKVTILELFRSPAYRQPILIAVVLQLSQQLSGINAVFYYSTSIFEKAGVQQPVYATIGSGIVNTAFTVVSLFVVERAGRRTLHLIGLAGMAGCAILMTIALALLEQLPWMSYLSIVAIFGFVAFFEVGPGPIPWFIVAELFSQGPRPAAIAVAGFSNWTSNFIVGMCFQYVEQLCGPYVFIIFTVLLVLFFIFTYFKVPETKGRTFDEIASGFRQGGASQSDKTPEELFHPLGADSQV
Experiment: Zero-trans 3-O-methylglucose uptake in red cells
Format: cell-based
Endpoint name: Ki (nM)

>>> value_measured("C=C[C@@]1(C)CC(=O)[C@]2(O)[C@@]3(C)[C@@H](O)CCC(C)(C)[C@@H]3[C@H](O)[C@H](OC(C)=O)[C@@]2(C)O1 [FSK, forskolin]")
1900

###

molecular target: UniProt P11166; format: binding; details: KL (Table 2, taken from Table 1), cytochalasins, rounded values
Endpoint name: Kd (nM)

>>> value_measured("C[C@H]1C/C=C/[C@H]2[C@@H]3O[C@]3(C)[C@@H](C)[C@H]3[C@H](Cc4ccccc4)NC(=O)[C@]32OC(=O)O/C=C/[C@@](C)(O)C1=O [CCE, Cytochalasin E]")
100
>>> value_measured("C=C1[C@@H](C)[C@H]2[C@H](Cc3ccccc3)NC(=O)[C@]23[C@H](OC(C)=O)/C=C/[C@@](C)(O)C(=O)[C@@H](C)C/C=C/[C@H]3[C@@H]1O [CCD, Cytochalasin D]")
2000

###

Target: GLUT1 (Homo sapiens, UniProt P11166)
Sequence (P11166 1-492): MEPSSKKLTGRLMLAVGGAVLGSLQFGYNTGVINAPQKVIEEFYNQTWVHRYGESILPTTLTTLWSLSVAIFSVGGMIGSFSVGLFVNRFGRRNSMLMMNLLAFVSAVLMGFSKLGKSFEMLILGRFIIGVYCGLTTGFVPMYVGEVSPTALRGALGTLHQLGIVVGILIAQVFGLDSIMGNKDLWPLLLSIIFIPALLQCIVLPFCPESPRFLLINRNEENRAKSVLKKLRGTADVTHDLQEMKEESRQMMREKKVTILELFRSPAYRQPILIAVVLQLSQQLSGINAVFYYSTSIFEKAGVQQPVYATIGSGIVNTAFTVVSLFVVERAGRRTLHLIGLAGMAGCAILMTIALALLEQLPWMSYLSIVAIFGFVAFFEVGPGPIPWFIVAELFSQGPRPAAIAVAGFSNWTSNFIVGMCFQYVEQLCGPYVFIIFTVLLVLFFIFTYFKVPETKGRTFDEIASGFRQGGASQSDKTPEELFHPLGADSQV
Format: binding
Settings: change in ΔG° relative to baseline cytochalasin or forskolin
Endpoint name: ΔΔG° (kcal/mol)

>>> value_measured("C=C[C@@]1(C)CC(=O)[C@]2(O)[C@@]3(C)CCCC(C)(C)[C@@H]3[C@H](O)[C@H](OC(C)=O)[C@@]2(C)O1 [1DOFSK, 1-deoxy-forskolin]")
-4.46
>>> value_measured("C=C[C@@]1(C)CC(=O)[C@H]2[C@](C)(O1)[C@@H](OC(C)=O)[C@@H](O)[C@H]1C(C)(C)CC[C@H](O)[C@@]12C [9DOFSK, 9-deoxy-forskolin]")
-1.12
>>> value_measured("C=C1[C@@H](C)[C@H]2[C@H](Cc3ccccc3)NC(=O)[C@]23[C@H](OC(C)=O)/C=C/[C@](C)(O)C[C@@H](C)C/C=C/[C@H]3[C@@H]1O [CCH, Cytochalasin H]")
0.00

###

Measured γ (hetero-cooperativity parameter), listed per entry for reference.
target: GLUT1 (Homo sapiens, UniProt P11166); format: binding; settings: 50 nM [3H]-CB, 4°C, eqn 6
Endpoint name: γ (hetero-cooperativity parameter)

>>> value_measured("C=C1[C@@H](C)[C@H]2[C@H](Cc3ccccc3)NC(=O)[C@]23OC(=O)/C=C/[C@H](O)CCC[C@@H](C)C/C=C/[C@H]3[C@@H]1O [CCB, Cytochalasin B]")
6.284
>>> value_measured("C=C1[C@@H](C)[C@H]2[C@H](Cc3ccccc3)NC(=O)[C@]23[C@H](OC(C)=O)/C=C/[C@](C)(O)C[C@@H](C)C/C=C/[C@H]3[C@@H]1O [CCH, Cytochalasin H]")
0.449
>>> value_measured("C=C1[C@@H](C)[C@H]2[C@H](Cc3ccccc3)NC(=O)[C@]23OC(=O)/C=C/C(=O)CCC[C@@H](C)C/C=C/[C@H]3[C@@H]1O [CCA, Cytochalasin A]")
0.374
>>> value_measured("C=C1[C@@H](C)[C@H]2[C@H](Cc3ccccc3)NC(=O)[C@]23[C@H](O)/C=C/[C@](C)(O)C[C@@H](C)C/C=C/[C@H]3[C@@H]1O [CCJ, Cytochalasin J]")
0.635
>>> value_measured("C=C[C@@]1(C)CC(=O)[C@]2(O)[C@@]3(C)[C@@H](O)CCC(C)(C)[C@@H]3[C@H](O)[C@H](OC(=O)CF)[C@@]2(C)O1 [7FAFSK, 7-fluoroacetyl-forskolin]")
0.475
>>> value_measured("C[C@H]1C/C=C/[C@H]2[C@@H]3O[C@]3(C)[C@@H](C)[C@H]3[C@H](Cc4ccccc4)NC(=O)[C@]32OC(=O)O/C=C/[C@@](C)(O)C1=O [CCE, Cytochalasin E]")
0.555
>>> value_measured("C=C[C@@]1(C)CC(=O)[C@]2(O)[C@@]3(C)[C@@H](OC(C)=O)CCC(C)(C)[C@@H]3[C@H](O)[C@H](OC(C)=O)[C@@]2(C)O1 [1AFSK, 1-acetyl-forskolin]")
0.440
>>> value_measured("C=C[C@@]1(C)CC(=O)[C@H]2[C@](C)(O1)[C@@H](OC(C)=O)[C@@H](O)[C@H]1C(C)(C)CC[C@H](O)[C@@]12C [9DOFSK, 9-deoxy-forskolin]")
0.464
>>> value_measured("C=C1[C@@H](C)[C@H]2[C@H](Cc3ccccc3)NC(=O)[C@]23[C@H](OC(C)=O)/C=C/[C@@](C)(O)C(=O)[C@@H](C)C/C=C/[C@H]3[C@@H]1O [CCD, Cytochalasin D]")
0.557

###

target: GLUT1 (Homo sapiens, UniProt P11166); type: binding; conditions: calculated as RT ln(1/KI)
Recorded measurements of ΔG°, one per entry
Endpoint name: ΔG° (kcal/mol)

>>> value_measured("C=C1[C@@H](C)[C@H]2[C@H](Cc3ccccc3)NC(=O)[C@]23[C@H](O)/C=C/[C@](C)(O)C[C@@H](C)C/C=C/[C@H]3[C@@H]1O")
-10.04
>>> value_measured("C=C[C@@]1(C)CC(=O)[C@]2(O)[C@@]3(C)[C@@H](O)CCC(C)(C)[C@@H]3[C@H](O)[C@H](OC(=O)CF)[C@@]2(C)O1")
-7.86
>>> value_measured("C=C[C@@]1(C)CC(=O)[C@H]2[C@](C)(O1)[C@@H](OC(C)=O)[C@@H](O)[C@H]1C(C)(C)CC[C@H](O)[C@@]12C")
-8.07

###

The reader will find reported β (cooperativity parameter, second inhibitor molecule) values listed item by item below.
molecular target: GLUT1 (Homo sapiens); type: binding; conditions: 50 nM [3H]-CB, 4°C, eqn 6
Endpoint name: β (cooperativity parameter, second inhibitor molecule)

>>> value_measured("C=C1[C@@H](C)[C@H]2[C@H](Cc3ccccc3)NC(=O)[C@]23[C@H](O)/C=C/[C@](C)(O)C[C@@H](C)C/C=C/[C@H]3[C@@H]1O")
6399
>>> value_measured("C=C[C@@]1(C)CC(=O)[C@]2(O)[C@@]3(C)CCCC(C)(C)[C@@H]3[C@H](O)[C@H](OC(C)=O)[C@@]2(C)O1")
22179
>>> value_measured("C=C1[C@@H](C)[C@H]2[C@H](Cc3ccccc3)NC(=O)[C@]23OC(=O)/C=C/[C@H](O)CCC[C@@H](C)C/C=C/[C@H]3[C@@H]1O")
6.284
